# Measured on: T1, Human CD137 ECD (human)
# T1 construct: also called 4-1BB
# Experimental protocol: single mutant vs template dBBDu183H
Each record here notes measured fold change of affinity.
Recorded metric: fold change of affinity (fold)

INSERT INTO assay_data (binder, recorded_metric, reported_result) VALUES
  ('H183/L072 VH K64I (antibody, name in Kabat numbering, V domains shown) VH: QVQLVESGGGLVQPGRSLRLSCAASGFTFSNAWMHWVRQAPGKGLEWVAQIKDKGNAYAAYYAPSVIGRFTISRDDSKNSIYLQMNSLKTEDTAVYYCHYVHYASASTVLPAFGVDAWGQGTTVTVSS VL: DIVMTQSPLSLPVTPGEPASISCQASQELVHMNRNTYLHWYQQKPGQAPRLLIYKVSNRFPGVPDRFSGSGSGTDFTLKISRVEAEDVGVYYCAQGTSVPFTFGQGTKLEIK', 'fold change of affinity', 1.1),
  ('H183/L072 VH S30Q (antibody, name in Kabat numbering, V domains shown) VH: QVQLVESGGGLVQPGRSLRLSCAASGFTFQNAWMHWVRQAPGKGLEWVAQIKDKGNAYAAYYAPSVKGRFTISRDDSKNSIYLQMNSLKTEDTAVYYCHYVHYASASTVLPAFGVDAWGQGTTVTVSS VL: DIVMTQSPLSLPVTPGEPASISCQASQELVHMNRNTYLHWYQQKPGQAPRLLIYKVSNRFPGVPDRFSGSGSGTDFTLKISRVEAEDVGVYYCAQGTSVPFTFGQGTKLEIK', 'fold change of affinity', 0.7),
  ('H183/L072 VH Y58W (antibody, name in Kabat numbering, V domains shown) VH: QVQLVESGGGLVQPGRSLRLSCAASGFTFSNAWMHWVRQAPGKGLEWVAQIKDKGNAYAAWYAPSVKGRFTISRDDSKNSIYLQMNSLKTEDTAVYYCHYVHYASASTVLPAFGVDAWGQGTTVTVSS VL: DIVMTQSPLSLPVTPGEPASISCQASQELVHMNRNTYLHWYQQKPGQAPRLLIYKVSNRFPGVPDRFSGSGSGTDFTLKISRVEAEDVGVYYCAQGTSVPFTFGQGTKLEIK', 'fold change of affinity', 0.2),
  ('H183/L072 VH P61M (antibody, name in Kabat numbering, V domains shown) VH: QVQLVESGGGLVQPGRSLRLSCAASGFTFSNAWMHWVRQAPGKGLEWVAQIKDKGNAYAAYYAMSVKGRFTISRDDSKNSIYLQMNSLKTEDTAVYYCHYVHYASASTVLPAFGVDAWGQGTTVTVSS VL: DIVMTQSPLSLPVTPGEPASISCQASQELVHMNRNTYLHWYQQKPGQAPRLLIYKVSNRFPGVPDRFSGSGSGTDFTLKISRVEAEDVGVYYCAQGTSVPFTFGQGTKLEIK', 'fold change of affinity', 0.6),
  ('H183/L072 VH S100aL (antibody, name in Kabat numbering, V domains shown) VH: QVQLVESGGGLVQPGRSLRLSCAASGFTFSNAWMHWVRQAPGKGLEWVAQIKDKGNAYAAYYAPSVKGRFTISRDDSKNSIYLQMNSLKTEDTAVYYCHYVHYASALTVLPAFGVDAWGQGTTVTVSS VL: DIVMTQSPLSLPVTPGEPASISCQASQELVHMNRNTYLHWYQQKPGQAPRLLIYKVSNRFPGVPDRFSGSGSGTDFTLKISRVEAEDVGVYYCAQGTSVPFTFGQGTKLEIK', 'fold change of affinity', 0),
  ('H183/L072 VH G100hA (antibody, name in Kabat numbering, V domains shown) VH: QVQLVESGGGLVQPGRSLRLSCAASGFTFSNAWMHWVRQAPGKGLEWVAQIKDKGNAYAAYYAPSVKGRFTISRDDSKNSIYLQMNSLKTEDTAVYYCHYVHYASASTVLPAFAVDAWGQGTTVTVSS VL: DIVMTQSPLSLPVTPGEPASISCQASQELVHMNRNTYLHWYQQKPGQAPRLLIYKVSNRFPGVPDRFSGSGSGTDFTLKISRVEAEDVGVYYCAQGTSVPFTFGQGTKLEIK', 'fold change of affinity', 0),
  ('H183/L072 VH T28Y (antibody, name in Kabat numbering, V domains shown) VH: QVQLVESGGGLVQPGRSLRLSCAASGFYFSNAWMHWVRQAPGKGLEWVAQIKDKGNAYAAYYAPSVKGRFTISRDDSKNSIYLQMNSLKTEDTAVYYCHYVHYASASTVLPAFGVDAWGQGTTVTVSS VL: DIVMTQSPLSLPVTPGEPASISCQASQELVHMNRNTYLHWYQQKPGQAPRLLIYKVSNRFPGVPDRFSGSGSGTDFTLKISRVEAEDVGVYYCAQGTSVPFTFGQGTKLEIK', 'fold change of affinity', 1.1),
  ('H183/L072 VH Y55D (antibody, name in Kabat numbering, V domains shown) VH: QVQLVESGGGLVQPGRSLRLSCAASGFTFSNAWMHWVRQAPGKGLEWVAQIKDKGNADAAYYAPSVKGRFTISRDDSKNSIYLQMNSLKTEDTAVYYCHYVHYASASTVLPAFGVDAWGQGTTVTVSS VL: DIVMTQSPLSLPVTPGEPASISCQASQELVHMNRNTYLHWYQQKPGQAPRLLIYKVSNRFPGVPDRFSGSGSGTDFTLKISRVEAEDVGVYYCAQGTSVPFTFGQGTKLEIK', 'fold change of affinity', 0.4),
  ('H183/L072 VH N31F (antibody, name in Kabat numbering, V domains shown) VH: QVQLVESGGGLVQPGRSLRLSCAASGFTFSFAWMHWVRQAPGKGLEWVAQIKDKGNAYAAYYAPSVKGRFTISRDDSKNSIYLQMNSLKTEDTAVYYCHYVHYASASTVLPAFGVDAWGQGTTVTVSS VL: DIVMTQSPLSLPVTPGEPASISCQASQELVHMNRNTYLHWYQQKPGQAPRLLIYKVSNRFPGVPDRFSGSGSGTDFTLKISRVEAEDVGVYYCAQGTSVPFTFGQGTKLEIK', 'fold change of affinity', 0.2),
  ('H183/L072 VH F29T (antibody, name in Kabat numbering, V domains shown) VH: QVQLVESGGGLVQPGRSLRLSCAASGFTTSNAWMHWVRQAPGKGLEWVAQIKDKGNAYAAYYAPSVKGRFTISRDDSKNSIYLQMNSLKTEDTAVYYCHYVHYASASTVLPAFGVDAWGQGTTVTVSS VL: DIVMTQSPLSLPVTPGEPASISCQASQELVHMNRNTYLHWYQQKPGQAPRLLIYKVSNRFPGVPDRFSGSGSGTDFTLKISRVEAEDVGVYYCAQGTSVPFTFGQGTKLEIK', 'fold change of affinity', 0.1);
